Test: first-order primary biodegradation rate constant k (sorption-corrected, fDis-corrected) (d-1); higher = faster biodegradation
Conditions: river segment: Greece (EL) A_Contam; incubation temperature 19 °C
recorded.endpoint: first-order primary biodegradation rate constant k

Below: 8 molecules and their reported first-order primary biodegradation rate constant k.
chemical.smiles | numeric.result
CC1(C)C[C@@H]1C(=O)N/C(=C\CCCCSC[C@H](N)C(=O)O)C(=O)O | 7.64
CCN(CC)CC(=O)Nc1c(C)cccc1C | 0.0177
COc1ccc(NC(=O)N(C)C)cc1Cl | 0.209
CCOC(=O)c1ccc(O)cc1 | 0.0419
CC(=O)Nc1ccc(O)cc1 | 3.21
CNC(=C[N+](=O)[O-])NCCSCc1ccc(CN(C)C)o1 | 6.6
CC1(C(=O)Nc2ccc(O)c(Cl)c2Cl)CCCCC1 | 0.189
Cc1cc(C)nc(NS(=O)(=O)c2ccc(N)cc2)n1 | 0.0988

(I) C#CCN(C)Cc1ccccc1
(II) CC(C)(Oc1ccc(Cl)cc1)C(=O)O
(III) Cc1cc(O)cc(C)c1Cl
Arrange the 3 molecules from largest to smallest first-order primary biodegradation rate constant k. Enter labels, ranked according to the request.
III, I, II

----------
Assay: first-order primary biodegradation rate constant k (sorption-corrected, fDis-corrected) (d-1); higher = faster biodegradation
Settings: river segment: Greece (EL) G_Pris; incubation temperature 19 °C
recorded.endpoint: first-order primary biodegradation rate constant k

compound | numeric.result
COc1cc(NS(=O)(=O)c2ccc(N)cc2)nc(OC)n1 | 0.237

(1) CN(C)C(=O)Nc1ccc(Cl)c(Cl)c1
(2) NC(=O)c1cn(Cc2c(F)cccc2F)nn1 [Rufinamide]
(3) CC(C)(Oc1ccc(CCNC(=O)c2ccc(Cl)cc2)cc1)C(=O)O [Bezafibrate]
Arrange the 3 compounds from largest to smallest first-order primary biodegradation rate constant k. Enter labels, ranked according to the request.
2, 3, 1

----------
Test: first-order primary biodegradation rate constant k (sorption-corrected, fDis-corrected) (d-1); higher = faster biodegradation
Conditions: river segment: Germany (DE) T_Pris; incubation temperature 24 °C
recorded.endpoint: first-order primary biodegradation rate constant k

compound | numeric.result
CCOc1ccccc1OCCN[C@H](C)Cc1ccc(OC)c(S(N)(=O)=O)c1 | 0.204
C#CCN(C)Cc1ccccc1 | 0.199
CC(C(=O)O)c1cccc(C(=O)c2ccccc2)c1 (configuration not stated) | 0.226
CC(=O)NC[C@H]1CN(c2ccc(N3CCOCC3)c(F)c2)C(=O)O1 | 0.0124
Cc1ccc2n[nH]nc2c1 | 0.00627
O=S(=O)(O)NC1CCCCC1 [Cyclamate] | 0.0464

(a) CC1(C)C[C@@H]1C(=O)N/C(=C\CCCCSC[C@H](N)C(=O)O)C(=O)O
(b) COc1ccc2cc([C@H](C)C(=O)O)ccc2c1
Field: entry with larger first-order primary biodegradation rate constant k (options a / b ). Label of pick, please.
a
(a: 4.29, b: 0.00509)

----------
Assay: first-order primary biodegradation rate constant k (sorption-corrected, fDis-corrected) (d-1); higher = faster biodegradation
Conditions: river segment: Germany (DE) T_Contam; incubation temperature 24 °C
recorded.endpoint: first-order primary biodegradation rate constant k

compound | numeric.result
CC(C)N(C(=O)COc1nnc(C(F)(F)F)s1)c1ccc(F)cc1 [Flufenacet] | 0.151

(I) CC1(C)C[C@@H]1C(=O)N/C(=C\CCCCSC[C@H](N)C(=O)O)C(=O)O [Cilastatin]
(II) O=C(NCC1CCCCN1)c1cc(OCC(F)(F)F)ccc1OCC(F)(F)F (stereo not given) [Flecainide]
Compare reported first-order primary biodegradation rate constant k values for I and II . Which is lower? Label of pick, please.
II
